Ki for Serine/threonine-protein kinase PLK1 (Homo sapiens, UniProt P53350) - collated from the literature.

Known Ki results, listed for orientation:
compound="CC(Nc1ncc(C#N)c(-c2c[nH]c3ncc(C(F)(F)F)cc23)n1)c1ccc(N2CCOCC2)cc1 (centres unmarked)" result="< 3 nM"
compound=N#Cc1cnc(NC2(C(=O)NCC(F)(F)F)CCCC2)nc1-c1c[nH]c2ncc(Cl)cc12 result="> 40 nM"
compound=Cc1nc(NCc2cnn(CC3CCC3)c2)nc2c1NC(=O)[C@H](C)N2C result="> 4000 nM"

Input line: Kindly state the measured Ki obtained for "COc1cc(C(=O)NCCCOC(C)=O)ccc1Nc1ncc2c(n1)N(C1CCCC1)CC(C)(C)C(=O)N2C" with Serine/threonine-protein kinase PLK1 (Homo sapiens, UniProt P53350).
Output line: < 10 nM

Input line: Kindly state the measured Ki obtained for "N#Cc1cnc(NCc2cccnc2)nc1-c1c[nH]c2ncc(C(F)(F)F)cc12" with Serine/threonine-protein kinase PLK1 (Homo sapiens, UniProt P53350).
Output line: 3 to 40 nM

Input line: Kindly state the measured Ki obtained for "C[C@@H](Nc1ncc(C#N)c(-c2c[nH]c3ncc(C(F)(F)F)cc23)n1)c1ccc(N2CCN(C)CC2)cc1F" with Serine/threonine-protein kinase PLK1 (Homo sapiens, UniProt P53350).
Output line: < 3 nM
